measuredOn: MNK2a (Homo sapiens)
runDescription: MNK2a in vitro kinase assay (assay 1), ADP-Glo
runConditions: preactivated GST-MNK2a, 20 μM ATP, read-out: MNK2 IC50
pIC50: −log10 of the molar value.

# molecule, pIC50
measured = [
    ("CO[C@@H]1CO[C@H]2[C@@H]1OC[C@H]2Oc1cc(F)ccc1Nc1ncnc2cc(N=S(C)(C)=O)cc(Cl)c12", 9.00),
    ("CSc1cc(N=S(C)(C)=O)cc2ncnc(Nc3ccc(F)cc3O[C@H]3CCOC3)c12", 8.70),
    ("Cc1cc(N=S2(=O)CCCC2)cc2ncnc(Nc3ccc(F)cc3O[C@@H]3CO[C@@H]4CCC[C@@H]43)c12", 9.00),
    ("COc1cc(N=S(C)(C)=O)cc2ncnc(Nc3ccc(F)cc3O[C@H]3CC[C@H](OC)CC3)c12", 8.22),
    ("Cc1cc(N=S2(=O)CCCC2)cc2ncnc(Nc3ccc(F)cc3OC3COCCOC3)c12", 8.70),
    ("Cc1cc(N=S(C)(=O)CCN(C)C)cc2ncnc(Nc3ccc(F)cc3O[C@H]3CC[C@H](O)CC3)c12 (stereo partly shown)", 8.30),
    ("Cc1cc(N=S(C)(C)=O)cc2ncnc(Nc3ccc(F)cc3O[C@@H]3CO[C@H]4[C@@H]3OC[C@@H]4F)c12", 8.70),
]

* * *

measuredOn: MNK1a (Homo sapiens, UniProt Q9BUB5)
Sequence (Q9BUB5 1-424 isoform Q9BUB5-2): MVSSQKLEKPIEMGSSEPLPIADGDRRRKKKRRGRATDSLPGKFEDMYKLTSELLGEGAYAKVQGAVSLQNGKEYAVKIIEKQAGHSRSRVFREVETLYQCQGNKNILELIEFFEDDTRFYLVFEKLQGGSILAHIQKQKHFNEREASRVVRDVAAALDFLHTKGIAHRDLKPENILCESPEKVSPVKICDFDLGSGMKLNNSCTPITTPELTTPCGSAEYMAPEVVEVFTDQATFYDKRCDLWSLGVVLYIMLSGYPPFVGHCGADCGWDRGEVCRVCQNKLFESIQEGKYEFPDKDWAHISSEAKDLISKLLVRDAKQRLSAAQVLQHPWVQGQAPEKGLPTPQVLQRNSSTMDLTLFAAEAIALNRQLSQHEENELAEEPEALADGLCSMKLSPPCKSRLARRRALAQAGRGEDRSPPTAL
runDescription: MNK1 in vitro kinase assay (assay 2), Z'-LYTE
runConditions: pre-activated GST-MNK1a
pIC50: −log10 of the molar value.
attributeMeasured: pIC50

# compound, attributeMeasured, resultValue
data = [
    ("Cc1cc(N=S(C)(C)=O)cc2ncnc(Nc3ccc(Cl)nc3O[C@H]3CCOC3)c12 [Example 1.41]", "pIC50", 7.13),
    ("Cc1cc(N=S(C)(C)=O)cc2ncnc(Nc3ccc(F)cc3OC3CC3)c12 [Example 7.12]", "pIC50", 7.06),
    ("CO[C@@H]1CO[C@H]2[C@@H]1OC[C@H]2Oc1cc(F)ccc1Nc1ncnc2cc(N=S(C)(C)=O)cc(OC(F)F)c12 [Example 1.24]", "pIC50", 7.74),
    ("Cc1cc(N=S(C)(=O)c2cccnc2)cc2ncnc(Nc3ccc(F)cc3O[C@@H]3CO[C@@H]4CCO[C@@H]43)c12 (stereo partly shown) [Example 2.95]", "pIC50", 7.48),
    ("CO[C@@H]1CO[C@H]2[C@@H]1OC[C@H]2Oc1cc(F)ccc1Nc1ncnc2cc(N=S(C)(C)=O)cc(Cl)c12 [Example 1.2]", "pIC50", 7.89),
    ("Cc1cc(N=S2(=O)CCCC2)cc2ncnc(Nc3ccc(F)cc3O[C@H]3CC[C@H](O)CC3)c12 [Example 2.40]", "pIC50", 7.25),
    ("CO[C@@H]1CO[C@H]2[C@@H]1OC[C@H]2Oc1cc(F)ccc1Nc1ncnc2cc(N=S(C)(C)=O)cc(OCCF)c12 [Example 5.6]", "pIC50", 7.60),
]

* * *

Catalogue of compounds with associated pIC50
measuredOn: MNK2a (Homo sapiens, UniProt Q9HBH9)
Sequence (Q9HBH9 whole entry): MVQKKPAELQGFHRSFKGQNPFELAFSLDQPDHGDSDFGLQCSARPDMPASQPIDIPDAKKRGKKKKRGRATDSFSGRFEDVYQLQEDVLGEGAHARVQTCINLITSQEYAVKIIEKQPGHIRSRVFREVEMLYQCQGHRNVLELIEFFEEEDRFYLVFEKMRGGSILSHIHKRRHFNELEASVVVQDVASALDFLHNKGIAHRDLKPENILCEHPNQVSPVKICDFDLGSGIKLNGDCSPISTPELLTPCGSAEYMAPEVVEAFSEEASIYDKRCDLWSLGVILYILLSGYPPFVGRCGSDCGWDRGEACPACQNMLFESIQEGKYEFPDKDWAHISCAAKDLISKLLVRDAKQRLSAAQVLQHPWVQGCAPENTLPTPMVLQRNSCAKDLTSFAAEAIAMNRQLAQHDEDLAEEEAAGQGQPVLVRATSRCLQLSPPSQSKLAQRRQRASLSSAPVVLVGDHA
runDescription: MNK2a in vitro kinase assay (assay 1), ADP-Glo
runConditions: preactivated GST-MNK2a, 20 μM ATP, read-out: MNK2 IC50
pIC50: −log10 of the molar value.

# compound, measuredOn, pIC50
measured = [
    ("Cc1cc(N=S(C)(=O)C(C)C)cc2ncnc(Nc3ccc(F)cc3O[C@H]3CCOC3)c12 (stereo partly drawn)", "MNK2a (Homo sapiens, UniProt Q9HBH9)", 8.40),
    ("Cc1cc(N=S(C)(C)=O)cc2ncnc(Nc3ccc(F)cc3O[C@@H]3CO[C@H]4[C@@H]3OC[C@H]4OC(C)C)c12", "MNK2a (Homo sapiens, UniProt Q9HBH9)", 8.40),
    ("CS(C)(=O)=Nc1cc(F)c2c(Nc3ccc(F)cc3O[C@H]3CCOC3)ncnc2c1", "MNK2a (Homo sapiens, UniProt Q9HBH9)", 8.52),
    ("COc1cc(N=S2(=O)CCCC2)cc2ncnc(Nc3cccnc3O[C@H]3CC[C@H](O)CC3)c12", "MNK2a (Homo sapiens, UniProt Q9HBH9)", 9.00),
    ("CS(C)(=O)=Nc1cc(F)c2c(Nc3ccc(F)cc3O[C@@H]3CCNC3)ncnc2c1", "MNK2a (Homo sapiens, UniProt Q9HBH9)", 7.44),
    ("CO[C@H]1CC[C@H](Oc2cc(F)ccc2Nc2ncnc3cc(N=S4(=O)CCCC4)cc(C)c23)CC1", "MNK2a (Homo sapiens, UniProt Q9HBH9)", 8.70),
    ("Cc1cc(N=S2(=O)CCC2)cc2ncnc(Nc3ccc(F)cc3O[C@H]3CC[C@H](O)CC3)c12", "MNK2a (Homo sapiens, UniProt Q9HBH9)", 8.70),
    ("COC1CCCC(Oc2cc(F)ccc2Nc2ncnc3cc(N=S(C)(C)=O)cc(C)c23)C1 (racemic)", "MNK2a (Homo sapiens, UniProt Q9HBH9)", 7.85),
    ("Cc1cc(N=S(C)(=O)C(C)(C)C#N)cc2ncnc(Nc3ccc(F)cc3O[C@H]3CCOC3)c12 (stereo partly drawn)", "MNK2a (Homo sapiens, UniProt Q9HBH9)", 8.30),
    ("COCCS(C)(=O)=Nc1cc(C)c2c(Nc3ccc(F)cc3O[C@H]3CC[C@H](OC)CC3)ncnc2c1 (stereo partly drawn)", "MNK2a (Homo sapiens, UniProt Q9HBH9)", 8.15),
    ("Cc1cc(N=S(C)(C)=O)cc2ncnc(Nc3ccc(F)cc3O[C@@H]3CCOC3)c12", "MNK2a (Homo sapiens, UniProt Q9HBH9)", 8.52),
    ("Cc1cc(N=S(C)(C)=O)cc2ncnc(Nc3ccc(F)cc3O[C@@H]3CCCN(CCO)C3)c12", "MNK2a (Homo sapiens, UniProt Q9HBH9)", 8.30),
    ("Cc1cc(N=S(C)(C)=O)cc2ncnc(Nc3ccc(F)cc3OC3(C)CCOC3)c12 (stereo not drawn)", "MNK2a (Homo sapiens, UniProt Q9HBH9)", 8.15),
    ("Cc1cc(N=S(C)(C)=O)cc2ncnc(Nc3ccc(F)cc3O[C@@H]3CO[C@H]4[C@@H]3OC[C@H]4C#N)c12", "MNK2a (Homo sapiens, UniProt Q9HBH9)", 8.15),
    ("Cc1cc(N=S(C)(C)=O)cc2ncnc(Nc3cccnc3O[C@H]3CC[C@H](NC(=O)OC(C)(C)C)CC3)c12", "MNK2a (Homo sapiens, UniProt Q9HBH9)", 8.40),
]

* * *

Known inhibition at 1 µM of a selection of molecules
measuredOn: MNK1a (Homo sapiens)
runDescription: MNK1 in vitro kinase assay (assay 2), Z'-LYTE
Type: biochemical
runConditions: compound concentration of 1 μM
attributeMeasured: inhibition at 1 µM (%)

# molecule, attributeMeasured, unitsText, resultValue
data = [
    ("CS(C)(=O)=Nc1cc(F)c2c(Nc3cccnc3O[C@@H]3CCCNC3)ncnc2c1 [Example 3.1]", "inhibition at 1 µM", "%", 50),
    ("CCOc1cc(N=S(C)(C)=O)cc2ncnc(Nc3ccc(F)cc3O[C@H]3CC[C@H](OC)CC3)c12 [Example 5.4]", "inhibition at 1 µM", "%", 78),
    ("CS(C)(=O)=Nc1cc(OC(F)F)c2c(Nc3ccc(F)cc3O[C@H]3CCOC3)ncnc2c1 [Example 1.23]", "inhibition at 1 µM", "%", 94),
    ("CO[C@H]1CC[C@H](Oc2cc(F)ccc2Nc2ncnc3cc(N=S4(=O)CCCCC4)cc(C)c23)CC1 [Example 2.84]", "inhibition at 1 µM", "%", 91),
    ("Cc1cc(N=S(C)(C)=O)cc2ncnc(Nc3ccc(F)cc3O[C@@H]3CO[C@H]4[C@@H]3OC[C@@H]4C#N)c12 [Example 2.61]", "inhibition at 1 µM", "%", 98),
    ("Cc1cc(N=S(C)(C)=O)cc2ncnc(Nc3ccsc3O[C@@H]3CCOC3)c12 [Example 2.58]", "inhibition at 1 µM", "%", 30),
    ("CS(C)(=O)=Nc1cc(F)c2c(Nc3ccc(F)cc3O[C@@H]3CCNC3)ncnc2c1 [Example 3.7]", "inhibition at 1 µM", "%", 81),
    ("Cc1cc(N=S2(=O)CCCC2)cc2ncnc(Nc3ccc(F)cc3O[C@@H]3CC[C@@H]4OCC[C@@H]43)c12 [Example 2.125]", "inhibition at 1 µM", "%", 94),
    ("COCCS(C)(=O)=Nc1cc(C)c2c(Nc3ccc(F)cc3O[C@@H]3CO[C@H]4[C@@H]3OC[C@H]4O)ncnc2c1 (stereo partly drawn) [Example 2.41]", "inhibition at 1 µM", "%", 90),
]

* * *

inhibition at 1 µM values by entry
measuredOn: MNK1a (Homo sapiens, UniProt Q9BUB5)
runDescription: MNK1 in vitro kinase assay (assay 2), Z'-LYTE
Assay type: biochemical
runConditions: compound concentration of 1 μM

# compound, inhibition at 1 µM
rows = [
    ("Cc1cc(N=S(C)(=O)C(C)C)cc2ncnc(Nc3ccc(F)cc3O[C@H]3CCOC3)c12 (stereo partly shown)", "95%"),
    ("Cc1cc(N=S2(=O)CCCC2)cc2ncnc(Nc3ccc(F)cc3O[C@@H]3CO[C@H]4[C@@H]3OC[C@@H]4F)c12", "101%"),
    ("CO[C@@H]1CCCC[C@H]1Oc1cc(F)ccc1Nc1ncnc2cc(N=S(C)(C)=O)cc(C)c12", "85%"),
    ("Cc1cc(N=S2(=O)CCCC2)cc2ncnc(Nc3ccc(F)cc3O[C@@H]3CCCN(C(=O)OC(C)(C)C)C3)c12", "88%"),
    ("Cc1cc(N=S2(=O)CCCC2)cc2ncnc(Nc3ccc(F)cc3O[C@@H]3CCCN(CCO)C3)c12", "100%"),
    ("CSc1cc(N=S(C)(C)=O)cc2ncnc(Nc3ccc(F)cc3O[C@H]3CCOC3)c12", "100%"),
    ("CO[C@H]1CC[C@H](Oc2cc(F)ccc2Nc2ncnc3cc(N=S4(=O)CCOCC4)cc(F)c23)CC1", "76%"),
]
